# Test system: patient-derived BT3 glioma cells
# method summary: 2-Compartment model, orthotopic model
# Type: in vivo, BALB/cOlaHsd-Foxn1^nu mouse
# conditions: Subject B brain (control); plasma-corrected input
measured parameter: 2-Compartment Vb (%)

compound="NC(=O)[C@H]([18F])C[C@H](N)C(=O)O [[^18F]FGln, (2S, 4R)-4-[^18F]fluoroglutamine]" assay_value=5.52

* * *

# Tested on: patient-derived BT3 glioma cells
# method summary: 2-Compartment model, orthotopic model
# Assay type: in vivo, BALB/cOlaHsd-Foxn1^nu mouse
# conditions: Subject B o.t. glioma; plasma-corrected input
measured parameter: 2-Compartment Vb

compound="NC(=O)[C@H]([18F])C[C@H](N)C(=O)O [[^18F]FGln, (2S, 4R)-4-[^18F]fluoroglutamine]" measured_parameter="2-Compartment Vb" assay_value=10.5%

* * *

# Tested on: patient-derived BT3 glioma cells
# method summary: 2-Compartment model, orthotopic model
# Type: in vivo, BALB/cOlaHsd-Foxn1^nu mouse
# conditions: Subject A brain (control); arterial blood input
measured parameter: 2-Compartment Vb (%)

compound="NC(=O)[C@H]([18F])C[C@H](N)C(=O)O [[^18F]FGln, (2S, 4R)-4-[^18F]fluoroglutamine]" measured_parameter="2-Compartment Vb" units_of_measure=% assay_value=7.82

* * *

# Tested on: rat BT4C glioma cells
# method summary: 2-Compartment model, subcutaneous model
# Type: in vivo, Foxn1^nu/nu mouse
# conditions: Flank tumor average (n=6); plasma-corrected input
measured parameter: 2-Compartment Vb (%)

compound="NC(=O)[C@H]([18F])C[C@H](N)C(=O)O [[^18F]FGln, (2S, 4R)-4-[^18F]fluoroglutamine]" experimental_target="rat BT4C glioma cells" units_of_measure=% assay_value=6.64

* * *

# Tested on: patient-derived BT3 glioma cells
# method summary: 2-Compartment model, orthotopic model
# Format: in vivo, BALB/cOlaHsd-Foxn1^nu mouse
# conditions: Subject B brain (control); arterial blood input
measured parameter: 2-Compartment Vb (%)

compound="NC(=O)[C@H]([18F])C[C@H](N)C(=O)O [[^18F]FGln, (2S, 4R)-4-[^18F]fluoroglutamine]" measured_parameter="2-Compartment Vb" assay_value=5.5

* * *

# Tested on: patient-derived BT3 glioma cells
# method summary: 2-Compartment model, orthotopic model
# Format: in vivo, BALB/cOlaHsd-Foxn1^nu mouse
# conditions: Subject A glioma max.; arterial blood input
measured parameter: 2-Compartment Vb (%)

molecule="NC(=O)[C@H]([18F])C[C@H](N)C(=O)O [[^18F]FGln, (2S, 4R)-4-[^18F]fluoroglutamine]" units_of_measure=% assay_value=20

* * *

# Tested on: patient-derived BT3 glioma cells
# method summary: 2-Compartment model, orthotopic model
# Assay type: in vivo, BALB/cOlaHsd-Foxn1^nu mouse
# conditions: Subject A o.t. glioma; plasma-corrected input
measured parameter: 2-Compartment Vb (%)

molecule="NC(=O)[C@H]([18F])C[C@H](N)C(=O)O [[^18F]FGln, (2S, 4R)-4-[^18F]fluoroglutamine]" measured_parameter="2-Compartment Vb" assay_value=11.6

* * *

# Tested on: patient-derived BT3 glioma cells
# method summary: 2-Compartment model, orthotopic model
# Format: in vivo, BALB/cOlaHsd-Foxn1^nu mouse
# conditions: Subject B glioma max.; plasma-corrected input
# Procedure: Image analysis was performed using CARIMAS software published and freely distributed by the Turku PET Center (http://turkupetcentre.fi/carimas/). CT scans were used as rough anatomical reference while tumor regions of interest (ROI) were hand-drawn based upon observed spikes of radioactivity in the PET images at locations correlating with recorded tumor grafts. […] Mean and maximum TBR values were reported as ROI radioactivity per volume divided by mean background radioactivity per volume. […]
measured parameter: 2-Compartment Vb

compound="NC(=O)[C@H]([18F])C[C@H](N)C(=O)O [[^18F]FGln, (2S, 4R)-4-[^18F]fluoroglutamine]" assay_value=13.4%
